Published IC50 for Matrix metalloproteinase-14 (Homo sapiens, UniProt P50281), assembled from different documents, is shown next.
REPORTED_METRIC: IC50

>>> recorded_result("COc1cc(N2CCN(C(=O)CC[C@@]3(C)NC(=O)NC3=O)C[C@@H]2C)ccc1Cl")
"> 0.1 µM"
>>> recorded_result("CCc1cc(N2CCN(C(=O)[C@@H](C)C[C@@]3(COC)NC(=O)NC3=O)C[C@@H]2C)cc(OC)c1Cl (mixture of isomers)")
"> 0.1 µM"
>>> recorded_result("CC1(CCC(=O)N2CCC(c3ccc(Cl)c(F)c3)CC2)NC(=O)NC1=O (stereo not drawn)")
"> 0.1 µM"
>>> recorded_result("COc1cc(C2CCN(C(=O)CCC3(C)NC(=O)NC3=O)CC2)cc(Cl)c1F (stereo not drawn)")
"> 0.1 µM"
>>> recorded_result("CCc1cc(C2CCN(C(=O)CC[C@H]3NC(=O)NC3=O)CC2)cc(OC)c1Cl")
"> 0.1 µM"
>>> recorded_result("Cc1cccc(COc2ccc(C(=O)[C@H]3CC[C@@H](Cn4nnc5ccc(C(F)(F)F)cc5c4=O)[C@@H]3C(=O)O)cc2)c1 (racemic)")
"0.18 µM"
>>> recorded_result("COCc1cc(COc2ccc(S(=O)(=O)CC(C=C3CCC4(CC3)OCCO4)N(O)C=O)cc2)cc(C)n1 (stereo not drawn)")
"> 100 µM"
>>> recorded_result("COc1cc(N2CCN(C(=O)CC[C@@]3(C)NC(=O)NC3=O)C[C@@H]2C)ccc1F")
"> 0.1 µM"
>>> recorded_result("O=C1NC(=O)[C@@H](CCC(=O)N2CCC(c3ccc(Cl)c(F)c3)CC2)N1")
"> 0.1 µM"
